meta.source: the supplement of paper PMC10567573

B1: SNX3 (parent)
chain: FLRQLPFRGDDGIFDDNFIEERKQ

Variants of: B1
Assay Remarks: protein stability index of a GFP-peptide fusion (GPS, HEK-293T) (PSI 1-6); higher = more stable;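 further: lentivirally expressed fusions sorted by FACS into six bins by GFP to DsRed ratio, PSI derived from sequencing read proportions per bin multiplied by bin number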
Test Context: c terminus: a fixed tail appended
Known protein stability index of a selection of variants

{"columns": ["Item Sequence", "protein stability index"],
 "data": [
  ["FGRQLPFRGDDGIFDDNFIEERKQ [L2G]", 4.59],
  ["ALRQLPFRGDDGIFDDNFIEERKQ [F1A]", 4.63],
  ["FLRQLVFRGDDGIFDDNFIEERKQ [P6V]", 2.29],
  ["FLRQLPFRHDDGIFDDNFIEERKQ [G9H]", 3.08],
  ["FLMQLPFRGDDGIFDDNFIEERKQ [R3M]", 2.76],
  ["FLFQLPFRGDDGIFDDNFIEERKQ [R3F]", 1.97],
  ["FLRQLPFRGDDGIFDDNFIEERKF [Q24F]", 2.96],
  ["FLRQLPFRGDDVIFDDNFIEERKQ [G12V]", 3.07],
  ["FLRQLPFRGDDMIFDDNFIEERKQ [G12M]", 3.79],
  ["FLRQLPFRGDDGIFDDNKIEERKQ [F18K]", 3.44],
  ["FLRQLPFRGDDGIFNDNFIEERKQ [D15N]", 2.75],
  ["FLRQLPFRDDDGIFDDNFIEERKQ [G9D]", 3.04],
  ["TLRQLPFRGDDGIFDDNFIEERKQ [F1T]", 4.59],
  ["FLRQLPFFGDDGIFDDNFIEERKQ [R8F]", 2.44],
  ["FLRQLPFRGDDGIFDDNFIEERVQ [K23V]", 2.49],
  ["FLRQLQFRGDDGIFDDNFIEERKQ [P6Q]", 3.32],
  ["FLRQLPFRGDDGIFDDNFIEEQKQ [R22Q]", 3.27]
]}
